- EXPERIMENT_SUMMARY: Drug recovery in healthy human urine treated with [14C]indacaterol at 800 ug, po as single dose after 168 hrs postdose by liquid scintillation counting
- Type: ADME, organism-based
- CONDITION_DESCRIPTION: in vivo
OBSERVABLE: Drug recovery (%)
Answers are plain numbers, in %.

Illustrative cases are given below, each with its answer.
{"COMPOUND": "CCc1cc2c(cc1C(C)O)CC(NC[C@H](O)c1ccc(O[C@@H]3O[C@H](C(=O)O)[C@@H](O)[C@H](O)[C@H]3O)c3[nH]c(=O)ccc13)C2 (stereo partly specified)", "OBS_VALUE": 0.83}
{"COMPOUND": "CCc1cc2c(cc1CC)CC(NCC(=O)O)C2", "OBS_VALUE": 0.97}

Can you give me Drug recovery for all of these, one by one?
1. CCc1cc2c(cc1C(C)O)CC(NC[C@H](O)c1ccc(O)c3[nH]c(=O)ccc13)C2 (stereo in doubt; P30.3)
2. CCc1cc2c(cc1CC)CC(NC[C@H](O)c1ccc(O[C@@H]3O[C@H](C(=O)O)[C@@H](O)[C@H](O)[C@H]3O)c3[nH]c(=O)ccc13)C2
3. CCc1cc2c(cc1CC)CC(N)C2
4. CCc1cc2c(cc1C(C)O)CC(NC[C@H](O)c1ccc(O)c3[nH]c(=O)ccc13)C2 (stereo in doubt; P26.9)

Result:
0.31
0.53
0
1.24

* * *

- EXPERIMENT_SUMMARY: Drug recovery in healthy human feces treated with [14C]indacaterol at 800 ug, po as single dose after 168 hrs postdose by liquid scintillation counting
- Format: ADME, organism-based
- CONDITION_DESCRIPTION: in vivo
Exercise: state measured Drug recovery for each of the compounds provided.
Please answer using the number first and the unit second.

Completed entries (count: 5):
{"COMPOUND": "CCc1cc2c(cc1C(C)O)CC(NC[C@H](O)c1ccc(O)c3[nH]c(=O)ccc13)C2 (stereo in doubt; P30.3)", "OBS_VALUE": "6.33%"}
{"COMPOUND": "CCc1cc2c(cc1CC)CC(NCC(=O)O)C2", "OBS_VALUE": "0%"}
{"COMPOUND": "CCc1cc2c(cc1C(C)O)CC(NC[C@H](O)c1ccc(O[C@@H]3O[C@H](C(=O)O)[C@@H](O)[C@H](O)[C@H]3O)c3[nH]c(=O)ccc13)C2 (stereo partly specified)", "OBS_VALUE": "0%"}
{"COMPOUND": "CCc1cc2c(cc1CC)CC(N)C2", "OBS_VALUE": "1.7%"}
{"COMPOUND": "CCc1cc2c(cc1CC)CC(NC[C@H](O)c1ccc(O[C@@H]3O[C@H](C(=O)O)[C@@H](O)[C@H](O)[C@H]3O)c3[nH]c(=O)ccc13)C2", "OBS_VALUE": "0%"}

Query: Supply reported Drug recovery belonging to this compound: CCc1cc2c(cc1C(C)O)CC(NC[C@H](O)c1ccc(O)c3[nH]c(=O)ccc13)C2 (stereo in doubt; P26.9)
Result: 17.44%
